- target: Sts-1HP W494H (Homo sapiens, UniProt Q8TF42, W505H)
- measurement notes: pNPP inhibition analysis of Sts-1HP mutant
Give measured Ki for each item. Keep answers brief.
Give bare numbers, in µM.

| compound | Ki [µM] |
| --- | --- |
| C[C@H]1c2cccc(O)c2C(=O)C2=C(O)[C@]3(O)C(=O)C(C(N)=O)=C(O)[C@@H](N(C)C)[C@@H]3[C@@H](O)[C@@H]21 [Doxycycline] | 1480 |

Proceeding to the next compound to report its Ki.
Request: Which Ki value belongs to Nc1c(/N=N/c2ccc(-c3ccc(/N=N/c4cc(S(=O)(=O)O)c5ccccc5c4N)cc3)cc2)cc(S(=O)(=O)O)c2ccccc12 [Congo Red] ?
Result: 1.07

###

For each entry below, report its IC50 value.
- assay context: read-out: Counterscreen IC50; compound added after NaOH stop, 10-point titration

| compound | property label | observed measurement |
| --- | --- | --- |
| CN(C)[C@@H]1C(O)=C(C(N)=O)C(=O)[C@@]2(O)C(O)=C3C(=O)c4c(O)ccc(Cl)c4[C@@H](O)[C@H]3C[C@@H]12 [Demeclocycline] | IC50 | > 14.5 µM |
| CN(C)[C@@H]1C(O)=C(C(N)=O)C(=O)[C@@]2(O)C(O)=C3C(=O)c4c(O)cccc4[C@@](C)(O)[C@H]3[C@H](O)[C@@H]12 [Oxytetracyline] | IC50 | > 14.5 µM |

Let us examine a further case.
Request: Returns the measured IC50 for the input compound. Input: Nc1c(/N=N/c2ccc(-c3ccc(/N=N/c4cc(S(=O)(=O)O)c5ccccc5c4N)cc3)cc2)cc(S(=O)(=O)O)c2ccccc12 [Congo Red]
Result: > 14.5 µM

###

For each entry below, report its Ki value.
- target: Sts-1HP Y596F (Homo sapiens, UniProt Q8TF42, Y607F)
- Sequence (Q8TF42 384-647 Y607F): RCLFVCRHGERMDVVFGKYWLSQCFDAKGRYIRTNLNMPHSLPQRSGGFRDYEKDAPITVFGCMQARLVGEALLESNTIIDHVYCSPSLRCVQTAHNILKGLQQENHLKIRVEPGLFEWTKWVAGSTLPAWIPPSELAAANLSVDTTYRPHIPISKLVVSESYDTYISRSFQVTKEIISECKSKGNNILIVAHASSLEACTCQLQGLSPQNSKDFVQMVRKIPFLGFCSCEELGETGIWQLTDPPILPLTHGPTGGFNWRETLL
- measurement notes: pNPP inhibition analysis of Sts-1HP mutant
In your response, put the unit directly after the numeric value.

| compound | property label | observed measurement |
| --- | --- | --- |
| C[C@H]1c2cccc(O)c2C(=O)C2=C(O)[C@]3(O)C(=O)C(C(N)=O)=C(O)[C@@H](N(C)C)[C@@H]3[C@@H](O)[C@@H]21 [Doxycycline] | Ki | 390 µM |

Consider now this further compound.
Request: I'd like to know its Ki. The compound in question is Nc1c(/N=N/c2ccc(-c3ccc(/N=N/c4cc(S(=O)(=O)O)c5ccccc5c4N)cc3)cc2)cc(S(=O)(=O)O)c2ccccc12 [Congo Red]
Result: 0.23 µM

###

- target: Sts-1HP W494L (Homo sapiens, UniProt Q8TF42, W505L)
- Sequence (Q8TF42 384-647 W505L): as the sequence (Q8TF42 384-647 Y607F) above, with W122L, F224Y counted along it
- measurement notes: pNPP inhibition analysis of Sts-1HP mutant
For each record, write down the corresponding Ki.

| smiles text | observed measurement |
| --- | --- |
| Nc1c(/N=N/c2ccc(-c3ccc(/N=N/c4cc(S(=O)(=O)O)c5ccccc5c4N)cc3)cc2)cc(S(=O)(=O)O)c2ccccc12 | 1.46 µM |

Lab note: next molecule to report on.
Request: Could you share which Ki value was measured for C[C@H]1c2cccc(O)c2C(=O)C2=C(O)[C@]3(O)C(=O)C(C(N)=O)=C(O)[C@@H](N(C)C)[C@@H]3[C@@H](O)[C@@H]21 ?
Result: 730 µM
